Lab note: MIC readings collected with Staphylococcus aureus, USA 300 for the following compounds.
*1 amine or outer side, *2 acyl side, *3 side chain or, on linkers, in order; H or OH if unused. Where a SMILES comes first, the peptide text is derived from it. Bridges are numbered along the chain shown (N, C = ends). [ ]: non-standard residue; d: D form. The star is where a group is joined. ξ: configuration not given here. Phe(3,5-F2) = N[C@@H](Cc1cc(F)cc(F)c1)C(=O)O; NH(4-OCF3-phenyl) = FC(F)(F)Oc1ccc(N*)cc1; Pro(4S-Me) = C[C@@H]1CN[C@H](C(=O)O)C1; ξPro(4S-Me) = C[C@@H]1CNC(C(=O)O)C1; NHPh(4-CF3) = FC(F)(F)c1ccc(N*)cc1; NMeaThr = CN[C@H](C(=O)O)[C@H](C)O; NMeT = CN[C@H](C(=O)O)[C@@H](C)O; aThr = C[C@H](O)[C@H](N)C(=O)O; Pip = O=C(O)[C@@H]1CCCCN1; NMeA = CN[C@@H](C)C(=O)O; CO = O=C([*:1])[*:2]; ξP = O=C(O)C1CCCN1
Just the number in µM, nothing appended.

Please state recorded MIC (tested on Staphylococcus aureus, USA 300) of C[C@H]1C[C@H]2C(=O)O[C@@H](C)[C@H](NC(=O)[C@H](Cc3cc(F)cc(F)c3)NC(=O)Nc3ccc(C(F)(F)F)cc3)C(=O)N3CCC[C@H]3C(=O)N3CCCC[C@H]3C(=O)N[C@@H](C)C(=O)N2C1 [Compound 19] ({NHPh(4-CF3)-CO}-[Phe(3,5-F2)][aThr]P[Pip]A[Pro(4S-Me)]; ester 2-C)
0.1

Observed MIC on Staphylococcus aureus, USA 300 for C[C@H]1CC2C(=O)O[C@@H](C)[C@H](NC(=O)[C@H](Cc3cc(F)cc(F)c3)NC(=O)Nc3ccc(OC(F)(F)F)cc3)C(=O)N3CCCC3C(=O)N(C)[C@@H](C)C(=O)N[C@@H](C)C(=O)N2C1 (stereo partly drawn) [Compound 28] ({NH(4-OCF3-phenyl)-CO}-[Phe(3,5-F2)][aThr][ξP][NMeA]A[ξPro(4S-Me)]; ester 2-C) , please.
0.1

Find MIC (Staphylococcus aureus, USA 300) for the entry C[C@H]1C[C@H]2C(=O)O[C@@H](C)[C@H](NC(=O)[C@H](Cc3cc(F)cc(F)c3)NC(=O)Nc3ccc(OC(F)(F)F)cc3)C(=O)N3CCC[C@H]3C(=O)N(C)[C@@H]([C@H](C)O)C(=O)N[C@@H](C)C(=O)N2C1 [Compound 203] ({NH(4-OCF3-phenyl)-CO}-[Phe(3,5-F2)][aThr]P[NMeaThr]A[Pro(4S-Me)]; ester 2-C)
0.098

Request body: readout MIC, system Staphylococcus aureus, USA 300, query C[C@H]1C[C@H]2C(=O)O[C@@H](C)[C@H](NC(=O)[C@H](Cc3cc(F)cc(F)c3)NC(=O)Nc3ccc(OC(F)(F)F)cc3)C(=O)N3CCC[C@H]3C(=O)N(C)[C@@H]([C@@H](C)O)C(=O)N[C@@H](C)C(=O)N2C1 [Compound 36] ({NH(4-OCF3-phenyl)-CO}-[Phe(3,5-F2)][aThr]P[NMeT]A[Pro(4S-Me)]; ester 2-C) . Return the value.
0.1

Value wanted: MIC (Staphylococcus aureus, USA 300) of entry C[C@H]1CC2C(=O)OC[C@H](NC(=O)[C@H](Cc3ccccc3)NC(=O)Nc3ccc(OC(F)(F)F)cc3)C(=O)N3CCCC3C(=O)N3CCCCC3C(=O)N[C@@H](C)C(=O)N2C1 (stereo partly drawn) [Compound 44]
0.8

Provide value of MIC for this record tested with Staphylococcus aureus, USA 300: C[C@@H]1NC(=O)[C@@H]2CCCCN2C(=O)[C@@H]2CCCN2C(=O)[C@@H](NC(=O)[C@H](Cc2cc(F)cc(F)c2)NC(=O)Nc2ccc(C(F)(F)F)cc2)[C@H](C)OC(=O)[C@@H]2CCCN2C1=O [Compound 16] ({NHPh(4-CF3)-CO}-[Phe(3,5-F2)][aThr]P[Pip]AP; ester 2-C)
0.8
